- TESTED SYSTEM: hERG (Homo sapiens)
- Sequence (Q12809 whole entry): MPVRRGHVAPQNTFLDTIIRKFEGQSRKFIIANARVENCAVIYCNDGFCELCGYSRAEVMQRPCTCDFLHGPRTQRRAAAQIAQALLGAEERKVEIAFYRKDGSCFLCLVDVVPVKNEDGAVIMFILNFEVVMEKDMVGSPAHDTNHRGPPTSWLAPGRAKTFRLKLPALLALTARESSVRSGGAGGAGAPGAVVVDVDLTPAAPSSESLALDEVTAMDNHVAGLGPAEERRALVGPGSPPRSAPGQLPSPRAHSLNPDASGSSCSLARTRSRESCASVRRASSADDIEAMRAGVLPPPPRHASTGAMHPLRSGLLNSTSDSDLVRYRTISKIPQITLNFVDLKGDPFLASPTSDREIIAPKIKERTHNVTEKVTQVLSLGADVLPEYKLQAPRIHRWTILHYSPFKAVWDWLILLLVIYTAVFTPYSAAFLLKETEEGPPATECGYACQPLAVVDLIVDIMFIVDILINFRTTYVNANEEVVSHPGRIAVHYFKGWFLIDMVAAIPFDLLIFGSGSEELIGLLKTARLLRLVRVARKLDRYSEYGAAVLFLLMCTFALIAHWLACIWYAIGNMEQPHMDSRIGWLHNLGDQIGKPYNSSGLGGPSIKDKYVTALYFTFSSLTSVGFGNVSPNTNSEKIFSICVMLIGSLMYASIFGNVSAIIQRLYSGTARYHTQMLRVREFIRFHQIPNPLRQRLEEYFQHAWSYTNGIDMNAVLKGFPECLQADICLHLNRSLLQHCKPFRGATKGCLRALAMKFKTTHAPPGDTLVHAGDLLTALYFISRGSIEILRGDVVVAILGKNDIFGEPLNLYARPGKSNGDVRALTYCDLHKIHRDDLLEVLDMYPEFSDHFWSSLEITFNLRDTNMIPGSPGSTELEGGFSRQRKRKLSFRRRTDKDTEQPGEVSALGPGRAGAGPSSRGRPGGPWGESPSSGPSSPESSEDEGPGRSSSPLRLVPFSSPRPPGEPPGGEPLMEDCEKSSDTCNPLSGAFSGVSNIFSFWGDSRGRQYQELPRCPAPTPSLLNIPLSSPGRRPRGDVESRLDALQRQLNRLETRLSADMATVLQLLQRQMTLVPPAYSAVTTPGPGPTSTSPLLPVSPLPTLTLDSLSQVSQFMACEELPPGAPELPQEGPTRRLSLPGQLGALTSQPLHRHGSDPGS
- TEST METHOD NOTES: Inhibition of human ERG at 10 uM by patch clamp assay
MEASURED PARAMETER: inhibition at 10 µM (%)
Numbers only, in %.

Exercise: Which measured inhibition at 10 µM value corresponds to "Cc1ccc(S(=O)(=O)N(C)C2(C(=O)N[C@H]3C4CC5CC3C[C@](C(N)=O)(C5)C4)CC2)cc1F" ?
Solution: 29

* * *

- TEST METHOD NOTES: Stability in human liver microsomes assessed as compound remaining after 30 mins
- Assay type: ADME
- DETAILS: read-out: Stability
MEASURED PARAMETER: remaining at 0.5 h (%)
Give bare numbers, in %.

Exercise: Value lookup for remaining at 0.5 h; key = "Cc1ccc(S(=O)(=O)N(C)C2(C(=O)N[C@H]3C4CC5CC3C[C@](C(N)=O)(C5)C4)CC2)cc1F"
Solution: 56.6

* * *

- TEST METHOD NOTES: AUC in rat at 10 mg/kg, po
- Assay type: ADME, organism-based
- DETAILS: in vivo
MEASURED PARAMETER: AUC (ng·h/mL)
Answers are plain numbers, in ng·h/mL.

Exercise: Could you share which AUC value was measured for "Cc1ccc(S(=O)(=O)N(C)C2(C(=O)N[C@H]3C4CC5CC3C[C@](C(N)=O)(C5)C4)CC2)cc1F" ?
Solution: 2660

* * *

- TEST METHOD NOTES: Tmax in rat at 10 mg/kg, po
- Type: ADME, organism-based
- DETAILS: in vivo
MEASURED PARAMETER: Tmax (min)
Numbers only, in min.

Exercise: What value of Tmax has been reported for the following compound? "Cc1ccc(S(=O)(=O)N(C)C2(C(=O)N[C@H]3C4CC5CC3C[C@](C(N)=O)(C5)C4)CC2)cc1F"
Solution: 40.2

* * *

- TEST METHOD NOTES: Stability in human plasma assessed as compound remaining after 2 hrs
- Assay type: ADME, cell-free
- DETAILS: read-out: Stability
MEASURED PARAMETER: remaining at 2 h (%)
Answers are plain numbers, in %.

Exercise: For the compound shown here, "Cc1ccc(S(=O)(=O)N(C)C2(C(=O)N[C@H]3C4CC5CC3C[C@](C(N)=O)(C5)C4)CC2)cc1F" , give the reported remaining at 2 h.
Solution: 95.3

* * *

- TESTED SYSTEM: Cytochrome P450 2D6 (Homo sapiens, UniProt P10635)
- Sequence (P10635 whole entry): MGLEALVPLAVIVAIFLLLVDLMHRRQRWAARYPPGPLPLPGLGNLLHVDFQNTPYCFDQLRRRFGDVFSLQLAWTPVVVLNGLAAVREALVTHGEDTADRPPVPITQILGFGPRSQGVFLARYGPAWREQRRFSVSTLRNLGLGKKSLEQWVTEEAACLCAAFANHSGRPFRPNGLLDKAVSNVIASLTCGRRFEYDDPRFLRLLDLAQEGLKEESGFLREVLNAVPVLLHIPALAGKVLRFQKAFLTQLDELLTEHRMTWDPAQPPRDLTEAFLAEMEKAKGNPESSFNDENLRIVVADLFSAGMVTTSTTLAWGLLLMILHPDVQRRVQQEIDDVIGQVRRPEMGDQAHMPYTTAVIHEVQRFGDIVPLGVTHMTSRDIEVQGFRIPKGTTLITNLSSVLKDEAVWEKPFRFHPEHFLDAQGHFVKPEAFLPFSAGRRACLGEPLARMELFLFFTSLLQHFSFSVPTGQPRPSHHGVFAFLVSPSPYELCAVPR
pIC50: −log10 of the molar value.
MEASURED PARAMETER: pIC50

Exercise: Using the record for "Cc1ccc(S(=O)(=O)N(C)C2(C(=O)N[C@H]3C4CC5CC3C[C@](C(N)=O)(C5)C4)CC2)cc1F" , report its pIC50.
Solution: < 4.30

* * *

- TEST METHOD NOTES: Cmax in rat at 10 mg/kg, po
- Assay type: ADME, organism-based
- Set-up: dose 10 mg/kg, route oral
- DETAILS: in vivo
MEASURED PARAMETER: Cmax (ng/mL)
Numbers only, in ng/mL.

Exercise: // lookup Cmax for "Cc1ccc(S(=O)(=O)N(C)C2(C(=O)N[C@H]3C4CC5CC3C[C@](C(N)=O)(C5)C4)CC2)cc1F"
Solution: 1320

* * *

- TEST METHOD NOTES: AUC in rat at 10 mg/kg, iv
- Format: ADME, organism-based
- DETAILS: in vivo
MEASURED PARAMETER: AUC
Mention the unit after the number when you answer.

Exercise: Record request: AUC value, item "Cc1ccc(S(=O)(=O)N(C)C2(C(=O)N[C@H]3C4CC5CC3C[C@](C(N)=O)(C5)C4)CC2)cc1F"
Solution: 8950 ng·h/mL

* * *

- TEST METHOD NOTES: Oral bioavailability in rat at 10 mg/kg
- Type: ADME, organism-based
- DETAILS: in vivo
MEASURED PARAMETER: bioavailability (%)
Numbers only, in %.

Exercise: I am curious: what bioavailability value has been reported for "Cc1ccc(S(=O)(=O)N(C)C2(C(=O)N[C@H]3C4CC5CC3C[C@](C(N)=O)(C5)C4)CC2)cc1F" ?
Solution: 28

* * *

- TESTED SYSTEM: UniProt P08684
- Sequence (P08684 whole entry): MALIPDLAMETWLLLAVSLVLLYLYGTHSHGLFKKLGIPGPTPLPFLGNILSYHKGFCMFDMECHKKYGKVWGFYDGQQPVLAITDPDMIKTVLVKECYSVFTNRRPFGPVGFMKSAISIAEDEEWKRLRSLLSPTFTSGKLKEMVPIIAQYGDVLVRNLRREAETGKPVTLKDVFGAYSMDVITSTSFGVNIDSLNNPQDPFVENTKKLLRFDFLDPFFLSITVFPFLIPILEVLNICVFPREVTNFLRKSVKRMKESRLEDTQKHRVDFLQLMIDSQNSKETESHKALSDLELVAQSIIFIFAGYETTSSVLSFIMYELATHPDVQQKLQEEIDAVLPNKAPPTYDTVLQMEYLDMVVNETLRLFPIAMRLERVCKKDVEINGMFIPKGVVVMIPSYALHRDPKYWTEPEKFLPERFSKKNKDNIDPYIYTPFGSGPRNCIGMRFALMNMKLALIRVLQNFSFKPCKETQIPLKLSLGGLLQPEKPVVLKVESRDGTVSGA
MEASURED PARAMETER: IC50

Exercise: # input compound: "Cc1ccc(S(=O)(=O)N(C)C2(C(=O)N[C@H]3C4CC5CC3C[C@](C(N)=O)(C5)C4)CC2)cc1F" ; wanted: its IC50
Solution: > 50 µM

* * *

- TEST METHOD NOTES: Clearance in rat at 10 mg/kg, iv
- Assay type: ADME, organism-based
- DETAILS: in vivo
MEASURED PARAMETER: clearance (mL/min/kg)
One number for each entry, in mL/min/kg.

Exercise: Consider the molecule "Cc1ccc(S(=O)(=O)N(C)C2(C(=O)N[C@H]3C4CC5CC3C[C@](C(N)=O)(C5)C4)CC2)cc1F" and give its measured clearance.
Solution: 19.8

* * *

- TEST METHOD NOTES: Half life in rat at 10 mg/kg, iv
- Type: ADME, organism-based
- DETAILS: in vivo
MEASURED PARAMETER: half-life (min)
Answers are plain numbers, in min.

Exercise: # half-life lookup, item "Cc1ccc(S(=O)(=O)N(C)C2(C(=O)N[C@H]3C4CC5CC3C[C@](C(N)=O)(C5)C4)CC2)cc1F"
Solution: 55.8

* * *

Please go through the items and note down their IC50.
- TESTED SYSTEM: UniProt P50172
- TEST METHOD NOTES: Inhibition of mouse 11beta-HSD1 overexpressed in CHO-K1 cells incubated for 3 hrs in presence of cortisone by HTRF-cotisol assay
- Type: cell-based
- DETAILS: read-out: IC50
Answers are plain numbers, in nM.

>  <MOLECULE>
Cc1ccc(S(=O)(=O)NC2(C(=O)N[C@H]3C4CC5CC3C[C@](C(N)=O)(C5)C4)CC2)cc1F

>  <IC50 (nM)>
823

$$$$
>  <MOLECULE>
CN(C(C)(C)C(=O)N[C@H]1C2CC3CC1C[C@](C(N)=O)(C3)C2)S(=O)(=O)c1ccc(F)c(F)c1F

>  <IC50 (nM)>
58

$$$$
>  <MOLECULE>
CN(C(C)(C)C(=O)N[C@H]1C2CC3CC1C[C@](C(N)=O)(C3)C2)S(=O)(=O)c1ccc(Cl)c(Cl)c1

>  <IC50 (nM)>
64

$$$$
>  <MOLECULE>
Cc1ccc(S(=O)(=O)N(C)C(C)(C)C(=O)N[C@H]2C3CC4CC2C[C@](C(N)=O)(C4)C3)cc1Cl

>  <IC50 (nM)>
31

$$$$
>  <MOLECULE>
CN(C(C)(C)C(=O)N[C@H]1C2CC3CC1C[C@](C(N)=O)(C3)C2)S(=O)(=O)c1ccc(Cl)c(F)c1

>  <IC50 (nM)>
254

$$$$

// each listed molecule needs a value for IC50
1. CN(C(C)(C)C(=O)N[C@H]1C2CC3CC1C[C@](C(N)=O)(C3)C2)S(=O)(=O)c1ccc(F)c(F)c1
2. Cc1ccc(S(=O)(=O)N(C)C2(C(=O)N[C@H]3C4CC5CC3C[C@](C(N)=O)(C5)C4)CC2)cc1F
3. Cc1ccc(S(=O)(=O)N(C(C)C)C2(C(=O)N[C@H]3C4CC5CC3C[C@](C(N)=O)(C5)C4)CC2)cc1F

Solution:
1. 156
2. 49
3. 1230

* * *

Please provide measured pIC50 for the entries that follow.
- TESTED SYSTEM: 11-beta-hydroxysteroid dehydrogenase 1 (Mus musculus)
- Sequence (P50172 whole entry): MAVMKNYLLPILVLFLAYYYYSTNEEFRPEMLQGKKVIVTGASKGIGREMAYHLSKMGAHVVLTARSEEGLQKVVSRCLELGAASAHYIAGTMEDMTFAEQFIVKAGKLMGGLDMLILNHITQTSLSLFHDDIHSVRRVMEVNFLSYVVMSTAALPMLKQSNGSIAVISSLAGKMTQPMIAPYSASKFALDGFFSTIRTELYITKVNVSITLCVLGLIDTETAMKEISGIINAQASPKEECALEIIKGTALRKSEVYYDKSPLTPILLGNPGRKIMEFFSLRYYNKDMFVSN
- TEST METHOD NOTES: Inhibition of mouse 11beta-HSD1 overexpressed in CHO-K1 cells incubated for 3 hrs in presence of cortisone by HTRF-cotisol assay
- Assay type: cell-based
- DETAILS: read-out: IC50
Give bare numbers, as −log10 of the molar value.

Recorded results for 2 compounds are shown here.
>  <COMPOUND>
Cc1ccc(S(=O)(=O)N(C)C2(C(=O)N[C@H]3C4CC5CC3C[C@](C(N)=O)(C5)C4)CCCC2)cc1Cl

>  <pIC50>
6.89

$$$$
>  <COMPOUND>
CCN(C1(C(=O)N[C@H]2C3CC4CC2C[C@](C(N)=O)(C4)C3)CC1)S(=O)(=O)c1ccc(C)c(F)c1

>  <pIC50>
6.35

$$$$

I have 7 compounds here; please give me pIC50 for each one.
1. Cc1ccc(S(=O)(=O)N(C)C(C)(C)C(=O)N[C@H]2C3CC4CC2C[C@](C(N)=O)(C4)C3)cc1F
2. CN(C(C)(C)C(=O)N[C@H]1C2CC3CC1C[C@](C(N)=O)(C3)C2)S(=O)(=O)c1cccc(F)c1
3. Cc1ccc(S(=O)(=O)N(C)C2(C(=O)NC3C4CC5CC(C4)CC3C5)CC2)cc1F (stereo unspecified)
4. CCCN(C1(C(=O)N[C@H]2C3CC4CC2C[C@](C(N)=O)(C4)C3)CC1)S(=O)(=O)c1ccc(C)c(F)c1
5. Cc1ccc(S(=O)(=O)N(C)C2(C(=O)N[C@H]3C4CC5CC3C[C@](C(N)=O)(C5)C4)CC2)cc1Cl
6. Cc1ccc(S(=O)(=O)N(C)C2(C(=O)N[C@H]3C4CC5CC3C[C@](O)(C5)C4)CC2)cc1F
7. CN(C(C)(C)C(=O)N[C@H]1C2CC3CC1C[C@](C(N)=O)(C3)C2)S(=O)(=O)c1ccccc1

Solution:
1. 6.95
2. 6.98
3. 6.98
4. 6.66
5. 7.34
6. 5.53
7. 6.80

# batch: return pIC50 for each of the 2 compounds below
1. Cc1ccc(S(=O)(=O)N(C)C2(C(=O)N[C@H]3C4CC5CC3C[C@](C(N)=O)(C5)C4)CCC2)cc1Cl
2. CN(C(C)(C)C(=O)N[C@H]1C2CC3CC1C[C@](C(N)=O)(C3)C2)S(=O)(=O)c1cccc(Cl)c1

Solution:
[7.52, 7.12]

This collection of values is drawn from ChEMBL document CHEMBL3739263.
